Assay: Apparent solubility by UV-VIS after 100 nm filtration
Assay type: physicochemical
Conditions: ultrapurified water, thermodynamic from solid, comparative formulation study, read-out: apparent solubility (comparative measurements, FIG. 15)
Procedure: The solid complex Ivacaftor formulations were dispersed in ultrapurified water in 1-10 mg/mL Ivacaftor equivalent concentration range. The resulting solutions were filtered by 100 nm disposable syringe filter. The Ivacaftor content in the filtrate was measured by UV-Vis spectrophotometry and the apparent solubility was calculated. The filtrate may contain Ivacaftor complex particles which could not be filtrated out using 100 nm pore size filter. […]
assay.metric: solubility

Asked: Tell me its solubility given `CC(C)(C)c1cc(C(C)(C)C)c(NC(=O)c2c[nH]c3ccccc3c2=O)cc1O` as the entry.
Given back: < 100 µg/mL
